Below, each entry is listed alongside its reported Population Tubulin-Different-Phenotype (%).
Tested on: Fibroblast
EXPERIMENT_SUMMARY: Multiplex assay against human fibroblast
Format: toxicity, cell-based
SETUP_CONDITIONS: 24 h, 1 µM, compound concentration 1 uM, replicate 1
Express it in %; write the number only.

>>> measured_value("CN(C)CCCc1cc(C(=O)Nc2ccc(-c3ccncc3)cc2)ccc1O.Cl.Cl")
25
>>> measured_value("Cc1ccc(C(C)(O)c2nc3ccccc3s2)c(C)c1 (stereo unspecified)")
22
>>> measured_value("Cc1ccc(F)cc1C(=O)Nc1ccc(C(=O)N2Cc3cccn3Cc3ccccc32)c(Cl)c1")
33

[in] Returns the measured Population Tubulin-Different-Phenotype (%) for the input molecule. Input: N#Cc1c(N)nc(SCc2csc(-c3ccc(Cl)cc3)n2)c(C#N)c1-c1ccc(OCCO)cc1
[out] 34

[in] Returns the measured Population Tubulin-Different-Phenotype (%) for the input molecule. Input: C[C@H](NC(=O)c1c(C(F)F)nn(C)c1Oc1cccc(C(F)(F)F)c1)c1ccc(C(=O)O)cc1
[out] 15

[in] Returns the measured Population Tubulin-Different-Phenotype (%) for the input molecule. Input: Cc1ccc(/C(=C\CN2CCCC2)c2ccccn2)cc1
[out] 23

[in] Returns the measured Population Tubulin-Different-Phenotype (%) for the input molecule. Input: COc1cc(C(=O)N(CCCc2ccccc2)Cc2ccc(CC(=O)O)cc2)cc(OC)c1C
[out] 13

[in] Returns the measured Population Tubulin-Different-Phenotype (%) for the input molecule. Input: CN1CCN(c2nc3cc(C(F)(F)F)ccc3n3cccc23)CC1.O=C(O)/C=C\C(=O)O.O=C(O)/C=C\C(=O)O
[out] 23

[in] Returns the measured Population Tubulin-Different-Phenotype (%) for the input molecule. Input: O=C(O)c1cc2ccccc2c(Cc2c(O)c(C(=O)O)cc3ccccc23)c1O
[out] 17

[in] Returns the measured Population Tubulin-Different-Phenotype (%) for the input molecule. Input: C[C@@H]1C[C@H]2[C@@H]3CCC4=CC(=O)C=C[C@]4(C)[C@@]3(F)[C@@H](O)C[C@]2(C)[C@@]1(O)C(=O)CO
[out] 26

[in] Returns the measured Population Tubulin-Different-Phenotype (%) for the input molecule. Input: CN1CCN2c3ncccc3Cc3ccccc3C2C1 (stereo unspecified)
[out] 31

[in] Returns the measured Population Tubulin-Different-Phenotype (%) for the input molecule. Input: C[C@H]1[C@H]2CC[C@H]3[C@@H]4CC=C5C[C@@H](N(C)C)CC[C@]5(C)[C@H]4CC[C@]23CN1C
[out] 22

----------
Below, each entry is listed alongside its reported Population Fragmented Nuclei (%).
Tested on: Fibroblast
EXPERIMENT_SUMMARY: Multiplex assay against human fibroblast
Assay type: toxicity, cell-based
SETUP_CONDITIONS: 48 h, 10 µM, compound concentration 10 uM, replicate 2
Express it in %; write the number only.

>>> measured_value("c1cc(OCCCN2CCCCC2)ccc1CN1CCCCC1")
48
>>> measured_value("Cc1ccc(F)cc1C(=O)Nc1ccc(C(=O)N2Cc3cccn3Cc3ccccc32)c(Cl)c1")
36
>>> measured_value("C[C@H](NC(=O)c1c(C(F)F)nn(C)c1Oc1cccc(C(F)(F)F)c1)c1ccc(C(=O)O)cc1")
45

[in] Returns the measured Population Fragmented Nuclei (%) for the input compound. Input: CSc1ccccc1N1CCN(CCCCCC(=O)NC2CCCc3ccccc32)CC1.Cl (stereo not given)
[out] 38

[in] Returns the measured Population Fragmented Nuclei (%) for the input compound. Input: Cl.Clc1ccc2nsnc2c1NC1=NCCN1 [TIZANIDINE HYDROCHLORIDE]
[out] 35
